recorded_endpoint: melting point

>>> value_reported("COc1ccccc1COc1ccc(S(=O)(=O)c2ccc(C)nc2Nc2cc(OC)c(OC)cc2Cl)cc1")
"149 to 151 °C"

# evaluate next
Exam item: Please report melting point for the following compound: `COc1cc(COc2ccc(S(=O)(=O)c3ccc(C)nc3Nc3c(C)cc(C)cc3C)cc2)cc(OC)c1`
Marked response: 107 to 109 °C

----------
# target: cloned human CRF-R1 receptors (Homo sapiens, UniProt P34998)
# Construct: the coding region was amplifies by PCR from start to stop codons; expressed in transfected cells; membranes
# Sequence (P34998 24-415): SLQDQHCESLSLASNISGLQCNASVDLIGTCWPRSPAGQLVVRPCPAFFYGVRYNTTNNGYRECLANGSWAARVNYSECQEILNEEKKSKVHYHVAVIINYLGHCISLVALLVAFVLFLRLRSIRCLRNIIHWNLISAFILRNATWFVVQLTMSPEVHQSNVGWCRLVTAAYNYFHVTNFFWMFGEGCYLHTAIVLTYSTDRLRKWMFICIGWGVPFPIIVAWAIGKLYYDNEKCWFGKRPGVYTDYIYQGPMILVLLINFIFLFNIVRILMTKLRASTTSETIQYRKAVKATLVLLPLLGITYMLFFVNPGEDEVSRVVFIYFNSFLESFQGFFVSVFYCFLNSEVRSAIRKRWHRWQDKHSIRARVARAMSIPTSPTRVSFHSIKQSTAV
# assay_overview: CRF-R1 receptor binding assay (inhibition of 125I-ovine-CRF binding to cell membranes)
# Parameters: key: a: Ki≦100 nM; b: 100 nM<Ki≦500 nM; c: 500 nM<Ki≦5,000 nM; activity reported in percent inhibition at 10 μM
# measurement_conditions: membranes of 293EBNA cells transfected with hCRFR1, class d = reported as percent inhibition at 10 μM, figures not given
recorded_endpoint: activity (Ki class in the CRF assays)

In the examples that follow, each entry is paired with its recorded activity (Ki class in the CRF assays).
>>> value_reported("COc1ccccc1COc1ccc(S(=O)(=O)c2ccc(C)nc2Nc2ccc(Cl)cc2C#N)cc1")
"d"
>>> value_reported("COc1ccccc1COc1ccc(S(=O)(=O)c2ccc(C)nc2Nc2cc(F)c(N(C)C)cc2Cl)cc1")
"d"
>>> value_reported("COc1ccccc1COc1ccc(S(=O)(=O)c2ccc(C)nc2Nc2cc(OC)c(OC)cc2C)cc1")
"d"
>>> value_reported("COc1ccccc1COc1ccc(S(=O)(=O)c2ccc(C)nc2Nc2cc(OC)c(OC)cc2Cl)cc1")
"d"

Exam item: Please report activity (Ki class in the CRF assays) for the following molecule: `COc1ccccc1COc1ccc(S(=O)(=O)c2ccc(C)nc2Nc2ccc(S(C)(=O)=O)cc2Cl)cc1`
Marked response: d
